Origin of values: paper PMC8769072

study_system: KPNB1 HEAT (importin subunit beta-1, HEAT repeat) (human) (UniProt Q14974)
Sequence (Q14974 whole entry): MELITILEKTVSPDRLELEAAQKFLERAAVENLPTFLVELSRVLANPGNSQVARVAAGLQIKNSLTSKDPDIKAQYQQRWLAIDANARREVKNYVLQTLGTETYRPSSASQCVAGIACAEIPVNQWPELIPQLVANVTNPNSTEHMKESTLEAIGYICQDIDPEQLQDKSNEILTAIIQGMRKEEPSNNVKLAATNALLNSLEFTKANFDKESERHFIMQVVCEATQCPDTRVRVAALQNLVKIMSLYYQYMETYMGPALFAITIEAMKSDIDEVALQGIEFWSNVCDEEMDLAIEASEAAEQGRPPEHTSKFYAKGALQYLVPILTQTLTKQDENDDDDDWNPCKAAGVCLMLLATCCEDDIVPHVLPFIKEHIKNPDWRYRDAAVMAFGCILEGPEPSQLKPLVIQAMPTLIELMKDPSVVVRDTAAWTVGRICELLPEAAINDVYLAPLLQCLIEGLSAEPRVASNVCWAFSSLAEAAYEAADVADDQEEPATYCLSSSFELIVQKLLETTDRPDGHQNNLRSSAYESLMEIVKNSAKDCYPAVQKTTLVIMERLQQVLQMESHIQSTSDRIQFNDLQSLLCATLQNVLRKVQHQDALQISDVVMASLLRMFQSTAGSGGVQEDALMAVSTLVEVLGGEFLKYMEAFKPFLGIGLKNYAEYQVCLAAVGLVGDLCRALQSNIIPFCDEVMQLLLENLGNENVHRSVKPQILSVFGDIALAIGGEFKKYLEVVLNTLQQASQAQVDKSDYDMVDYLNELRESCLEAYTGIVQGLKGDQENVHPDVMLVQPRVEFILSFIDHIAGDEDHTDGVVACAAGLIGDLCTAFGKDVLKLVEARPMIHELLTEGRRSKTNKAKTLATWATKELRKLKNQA
assay_notes: fluorescence polarisation; direct saturation binding: protein in serial dilution, FITC-labelled probe peptide fixed (master mix 10 nM probe, 2 mM DTT); 50 mM KPO4 or NaPO4 pH 7.5; quadratic fit
The star is where a group is joined. FITC = O=C1OC2(c3ccc(O)cc3Oc3cc(O)ccc32)c2ccc(NC(=S)*)cc21
experimental_readout: Kd (µM)
Express it in µM; write the number only.

{FITC}-VATFVFGQSS-NH2 [FITC-NUP153 1223-1232 probe peptide] yielded Kd of 106
